# PROTOCOL DETAILS: chemical genetic growth profiling, strain panel (AID 1159580);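 note: tested at 20 µM; growth read once vehicle control cultures reached saturation at 30 °C; 1 = growth at the plate median or of vehicle wells; lower values mean less growth of the strain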
# CONDITION LABEL: S. cerevisiae deletion strains, growth OD, locus YGL248W, strain PDE1, hits give low values
The whole screen tested about 5,500 compounds, of which about 2,000 (36%) were called active. Not shown: some 18% with an inconclusive outcome. The list shows a part of the results. Where a SMILES comes first, the peptide text is derived from it. The star is where a group is joined. For = O=C*
normalized growth reference

| COMPOUND | normalized growth |
| --- | --- |
| Cc1cn([C@H]2C[C@H](N=[N+]=[N-])[C@@H](CO)O2)c(=O)[nH]c1=O | 1.01 |
| CC(=O)NC(C(=O)O)C(C)(C)SN=O (stereo unspecified) | 1.01 |
| Cc1cc(O)cc(=O)o1 | 0.997 |
| C/C=C(/C)C(=O)O[C@H]1CC[C@@]2(C)[C@@H]3CC[C@H]4[C@]5(O)C[C@H](O)[C@@]6(O)[C@@H](CN7C[C@@H](C)CC[C@H]7[C@@]6(C)O)[C@]5(O)C[C@@]42O[C@]13O | 1.03 |
| CSCCC(NC=O)C(=O)NC(Cc1ccccc1)C(=O)O (stereo not drawn) (For-Met-Phe-OH; configuration not given here) | 1 |
| NC(Cc1c[nH]c2ccccc12)C(=O)O (stereo unspecified) | 0.991 |
| C/C=C1\[C@H]2C=C(C)C[C@]1(N)c1ccc(=O)[nH]c1C2 | 1.01 |
| CCCOc1ccccc1-c1nc2n[nH]nc2c(=O)[nH]1 | 0.981 |
| Cc1ccnc(NS(=O)(=O)c2ccc(N)cc2)n1 | 0.998 |
| CC(C)(C#N)O[C@@H]1O[C@H](CO)[C@@H](O)[C@H](O)[C@H]1O | 1.01 |
| Cc1cc(O)ccc1Cl | 1.02 |

====

normalized growth reference
# PROTOCOL DETAILS: chemical genetic growth profiling, strain panel (AID 1159580);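 note: tested at 20 µM; growth read once vehicle control cultures reached saturation at 30 °C; 1 = growth at the plate median or of vehicle wells; lower values mean less growth of the strain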
# CONDITION LABEL: S. cerevisiae deletion strains, growth OD, locus YCL061C, strain MRC1 (second series), hits give low values
The campaign covered roughly 5,500 compounds. About 2,000 (36%) were called active. Inconclusive results (about 18%) are left out. This is one part of the list.

| COMPOUND | normalized growth |
| --- | --- |
| CC(C)C(=O)c1c(C(C)C)nn2ccccc12 | 0.985 |
| CN1C2CCC1CC(NC(=O)c1nn(C)c3ccccc13)C2 (stereo unspecified) | 1.01 |
| Clc1cc(I)cc(Cl)c1NC1=NCCN1 | 1.01 |
| N[C@H](C(=O)O)[C@H]1C[C@@H]1C(=O)O | 1.01 |
| NNc1nncc2ccccc12 | 1 |
| O=c1c2ccccc2nc2n1CCc1c-2[nH]c2ccccc12 | 1.01 |

====

# PROTOCOL DETAILS: chemical genetic growth profiling, strain panel (AID 1159580);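 note: tested at 20 µM; growth read once vehicle control cultures reached saturation at 30 °C; 1 = growth at the plate median or of vehicle wells; lower values mean less growth of the strain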
# CONDITION LABEL: S. cerevisiae deletion strains, growth OD, locus YMR263W, strain SAP30
Screen size: about 5,500 compounds; about 2,000 (36%) were called active. Another 18% or so got no clear call; they are omitted. Rule as the data show it: active = normalized growth mostly below about 0.91 (no sharp cut-off); inconclusive = no clear call, values can overlap the other calls; inactive = mostly above about 0.92. The list shows a part of the results.
Classes used: true (1) = active, false (0) = inactive

| COMPOUND | CATEGORY LABEL |
| --- | --- |
| CCc1cc2c(cc1C(=O)CC1(O)C(=O)Nc3ccc(Br)cc31)C(C)(C)CCC2(C)C (stereo not drawn) | false (0) |
| Cc1cc(C)cc(NC(=S)N2CCN(c3ncc(C(F)(F)F)cc3Cl)CC2)c1 | false (0) |
| Nc1c2ccccc2nc2ccccc12 | true (1) |
| CCC(C)C(=O)O[C@H]1[C@H](O)C2C(CN3CC(C)CCC3[C@@]2(C)O)C2C[C@]34O[C@]5(O)C(OC(=O)C(C)(O)CC)CC[C@@]3(C)C5C(OC(C)=O)[C@@H](OC(C)=O)C4[C@@]21O (stereo partly drawn) | false (0) |
| Cc1cc(O)ccc1Cl | false (0) |
| Cc1cc(=O)n2[nH]cc(C#N)c2n1 | false (0) |
| CC1=CCC2C3(C)C1=CC(=O)OC3CC1C(C)(C)CC(O)C(O)C12C (stereo not drawn) | false (0) |
| CC(C)c1ccccc1NC(=S)N1CCN(c2ncc(C(F)(F)F)cc2Cl)CC1 | false (0) |
| Cc1cc(OCOc2ccc(Cl)c(C)c2)ccc1Cl | false (0) |
| COc1ccc2c(c1)c(CC(=O)N1CCOCC1)c(C)n2C(=O)c1ccc(Cl)cc1 | false (0) |
| Cc1cccc(NC(=S)NC2CC3C=CC2C3)c1 (stereo not drawn) | false (0) |
| COc1cc(C2OC(c3cc(C)ccc3[N+](=O)[O-])=NN2C(C)=O)cc(OC)c1OC (stereo not drawn) | false (0) |
| OC(CCN1CCCC1)(c1ccccc1)C1CCCCC1 (stereo not drawn) | false (0) |
| NC(=S)COc1ccccc1Cl | false (0) |
| CNC(=O)O/N=C\C(C)(C)SC | false (0) |
| O=S(=O)(CCN1CCOCC1)c1ccc(Cl)cc1 | false (0) |
| CC(C)CC(N(C)C)C1(c2ccc(Cl)cc2)CCC1 (stereo not drawn) | false (0) |
| C[C@H]1[C@H](C)CC[C@]2(CO)CC[C@]3(C)C(=CCC4[C@@]5(C)CC[C@H](O)C(C)(C)C5CC[C@]43C)[C@H]12 (stereo partly drawn) | false (0) |
| CCOC(=O)NC(=O)c1cn(Cc2cccs2)c(=O)[nH]c1=O | false (0) |
| Cn1cnc2c(NCc3ccccc3)nc(NCCO)nc21 | false (0) |
| COc1ccccc1C1OC(=O)CC1C(=O)O (stereo not drawn) | false (0) |
| CC(=O)NCc1c(I)c(NC(C)=O)c(I)c(C(=O)O)c1I | false (0) |
| COC(=O)c1cccc(NC(=O)CC2C(=O)NCCN2C(=O)c2cccs2)c1 (stereo not drawn) | false (0) |
